- assayed system: CRTH2 receptor (Homo sapiens (Human), UniProt Q9Y5Y4)
- Sequence (Q9Y5Y4 whole entry): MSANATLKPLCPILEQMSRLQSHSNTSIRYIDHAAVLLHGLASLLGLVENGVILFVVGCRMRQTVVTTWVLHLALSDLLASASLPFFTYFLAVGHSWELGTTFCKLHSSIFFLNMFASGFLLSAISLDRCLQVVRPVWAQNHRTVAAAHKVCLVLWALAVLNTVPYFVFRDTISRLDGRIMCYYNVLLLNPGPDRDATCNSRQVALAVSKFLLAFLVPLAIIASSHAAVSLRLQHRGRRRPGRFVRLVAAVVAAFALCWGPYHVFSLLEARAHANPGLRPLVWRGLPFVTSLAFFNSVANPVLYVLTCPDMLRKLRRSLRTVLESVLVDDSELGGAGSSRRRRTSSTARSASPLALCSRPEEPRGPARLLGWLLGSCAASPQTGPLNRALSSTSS
- experiment: PathHunter CHO-K1 CRTH2 β-arrestin antagonist assay (PGD2 agonist)
- measurement setup: PathHunter CHO-K1 CRTH2 β-arrestin cells; 30 min compound pre-incubation, then EC80 PGD2 for 90 min; chemiluminescence
pIC50: −log10 of the molar value.
Field: pIC50. Provide a value for each of the compounds that follow.

Worked cases, answers included:
compound	pIC50
Cc1c(Cc2ccc3c(c2)CCS3(=O)=O)c2cc(Cl)ccc2n1CC(=O)O	6.00 to 7.00
Cc1c(Cc2cc3c(cc2C(F)(F)F)S(=O)(=O)N(C)CC3(F)F)c2cc(F)ccc2n1CC(=O)O	6.00 to 7.00
Cc1c(C(C)C2=CS(=O)(=O)c3ccccc32)c2cc(F)ccc2n1CC(=O)O (centres unmarked)	6.00 to 7.00
Cc1c(Cc2ccc3c(c2)CCS3(=O)=O)c2cc(Br)ccc2n1CC(=O)O	6.00 to 7.00
Cc1c(C2=CS(=O)(=O)c3ccc(C(F)(F)F)cc32)c2cc(F)ccc2n1CC(=O)O	6.00 to 7.00
Cc1c(C2=CS(=O)(=O)c3cc(C(F)(F)F)ccc32)c2ccc(F)cc2n1CC(=O)O	6.00 to 7.00

Okay, here is my list. What is pIC50 for each of these?
1. Cc1c(Cc2ccc3c(c2)CCS3(=O)=O)c2cc(F)ccc2n1CC(=O)O
2. Cc1ccc2c(c1)c(Cc1ccc3c(c1)CCS3(=O)=O)c(C)n2CC(=O)O

1: > 7.00; 2: 6.00 to 7.00

Hi team, please reply with pIC50 for each item in this list.
1. Cc1c(C2=CS(=O)(=O)c3cc(S(C)(=O)=O)ccc32)c2cc(F)ccc2n1CC(=O)O
2. CC(=O)Nc1ccc2c(c1)c(Cc1ccc3c(c1)CCS3(=O)=O)c(C)n2CC(=O)O
3. Cc1c(Cc2ccc3c(c2)C(F)(F)CCS3(=O)=O)c2ncccc2n1CC(=O)O
4. Cc1c(Cc2ccc3c(c2)N(C)CN(C2CC2)S3(=O)=O)c2cc(F)ccc2n1CC(=O)O
5. Cc1c(C2CS(=O)(=O)c3ccccc32)c2cc(F)ccc2n1CC(=O)O (centres unmarked)
6. Cc1c(Cc2ccc3c(c2)N=CNS3(=O)=O)c2cc(F)ccc2n1CC(=O)O

> 7.00
< 6.00
6.00 to 7.00
> 7.00
6.00 to 7.00
> 7.00

Go through the items and report each one's pIC50.
1. Cc1c(C2=CS(=O)(=O)c3ccc(Cl)cc32)c2ccc(C(F)(F)F)cc2n1CC(=O)O
2. Cc1c(Cc2cccc3c2CCS3(=O)=O)c2cc(F)ccc2n1CC(=O)O
3. Cc1c(Cc2ccc3c(c2)C=CS3(=O)=O)c2cc(F)ccc2n1CC(=O)O

1. 6.00 to 7.00
2. 6.00 to 7.00
3. 6.00 to 7.00
